Measured values drawn from the METLIN SMRT retention time set (Domingo-Almenara et al. 2019) for this set.

assay name: gradient 5% acetonitrile 3 min, to 50% in 2 min, to 85% in 15 min, held 3 min, 100 µL/min
test context: column: Zorbax Extend-C18 2.1 x 50 mm; eluents: water / acetonitrile, 0.1% formic acid
The reader will find reported RP-LC retention time values listed item by item below.
measurement name: RP-LC retention time

CS(=O)(=O)N(C1CCOCC1)C1CN(C(=O)c2cc3ccccc3[nH]2)C1 ... 685 s
CN1CCCn2nc(C3CCN(C(=O)NCCc4ccccc4)CC3)cc2C1=O ... 657 s
Cc1ccc(NS(=O)(=O)c2cc(-c3[nH]ncc3C(=O)N3CCOCC3)oc2C)c(C)c1 ... 721 s
COc1c(C(=O)NC(C)C)sc2ccc(Cl)cc12 ... 1060 s
O=C(NCc1ccncc1)C1CCN(c2ncnc3c2oc2ccccc23)CC1 ... 593 s
Cc1ccccc1CNC(=O)C1(C)CCCN(C(=O)Nc2ccc(F)cc2)C1 (stereo not drawn) ... 899 s
COc1ccc(Nc2nc(-c3nnn(-c4ccc(F)cc4F)c3C)ns2)cc1OC ... 900 s
CC1=NS(=O)(=O)N(Cc2ccccc2)C=C1C(=O)OCc1nc(-c2ccc(F)cc2)no1 ... 1140 s
CCC(=O)N1CCc2cc(N3CC(C(=O)NC(C)c4ccccc4)CC3=O)ccc21 (stereo not drawn) ... 750 s
CN1C(=O)CCC2(CNC(=O)c3n[nH]c(=O)c4ccccc34)CCC=C12 (stereo not drawn) ... 669 s
CCCOc1ccc(C2C(=O)N(C3CCC(C)CC3)CC(=O)N2Cc2ccco2)cc1OC (stereo not drawn) ... 1070 s
CCNC(=O)NCCC1CCN(S(=O)(=O)c2ccc(C)cc2)CC1 ... 748 s
Cc1ccc2c(c1)N(Cc1ccccc1C)N=C(C(=O)N1CCCCC1)S2(=O)=O ... 1040 s
Cn1cc(S(=O)(=O)N2CCC(C(=O)N3CCCCCC3)CC2)cc1C(=O)N1CCCCC1 ... 770 s
CC(C)N1CCN(c2ncccc2-c2nnc(-c3ccc(Cl)cc3)o2)CC1 ... 670 s
Cn1cc(C(CNC(=O)Nc2cccc(Cl)c2)c2cccnc2)c2ccccc21 (stereo not drawn) ... 756 s
CC1=C(c2ccc(C)cc2)S(=O)(=O)N=C1N1CCCN(C(=O)c2ccc(C)cc2)CC1 ... 885 s
O=C(NC1CCCCC1)C1CCCN(C(=O)c2cc(-c3cccnc3)n[nH]2)C1 (stereo not drawn) ... 622 s
CS(=O)(=O)NCC1CCN(C(=O)c2ccccc2F)CC1 ... 608 s
CSc1ncc(Cl)c(C(=O)NCc2ccco2)n1 ... 753 s
CC(C)c1nnc2ccc(N3CCOCC3)nn12 ... 645 s
Cc1ccc(C)c(NC(=O)C2CCCN(S(=O)(=O)c3cn(C(C)C)cn3)C2)c1 (stereo not drawn) ... 781 s
COc1ccccc1N1C(=O)N(c2ccc([N+](=O)[O-])cc2)C2CS(=O)(=O)CC21 (stereo not drawn) ... 745 s
O=C(Nc1ccc2c(c1)OCCO2)c1cn(-c2cc(N3CCSCC3)ncn2)cn1 ... 832 s
O=C(c1cn2c(n1)CCCC2)N(Cc1ccccc1)Cc1ccco1 ... 668 s
Cc1oc2ccc(NS(=O)(=O)c3ccc(F)cc3)cc2c1C(=O)O ... 742 s
O=C(CN1C(=O)CCC1=O)N1CCC(c2noc(-c3ccccn3)n2)C1 (stereo not drawn) ... 608 s
O=C1COc2cc(S(=O)(=O)N3CCCC3C(=O)Nc3ccc4c(c3)OCCO4)c(Cl)cc2N1 (stereo not drawn) ... 734 s
